# Test system: Resistant Plutella xylostella
# measurementDescription: Indoor test on 3rd-instar larvae of Plutella xylostella, resistant insects (cabbage leaf dip)
# Type: in vivo
# experimentalParameters: Plutella xylostella, foliar, 72 h, read-out: LC50 (50% lethal concentration)
assayEndpoint: LC50
A bare number is not enough; add the unit after it.

Worked cases, LC50 given:
compound	assayEndpoint	recordedValue
CCN(C(=O)C(C)(C)c1ccc(F)cc1)c1ccc(Cl)cc1 [compound 13]	LC50	73 µg/mL
CC(C)(C(=O)Nc1ccc(Cl)cc1)c1ccccc1F [compound 16]	LC50	331 µg/mL
CCCCN(C(=O)C(C)(C)c1ccc(Cl)cc1)c1ccc(Cl)cc1 [compound 9]	LC50	365 µg/mL
CC(C)(C(=O)Nc1ccc(C#N)cc1)c1ccc(Cl)cc1 [compound 5]	LC50	90 µg/mL
CC(C)(C(=O)Nc1ccc(C(F)(F)F)cc1)c1ccc(F)cc1 [compound 12]	LC50	110 µg/mL

INPUT: Reported LC50, compound CC(C)(C(=O)Nc1ccc(Cl)cc1)c1ccc(Cl)cc1 [compound 2] : ____
OUTPUT: 110 µg/mL

INPUT: Reported LC50, compound CN(C(=O)C(C)(C)c1ccc(Cl)cc1)c1ccc(Cl)cc1 [compound 6] : ____
OUTPUT: 60 µg/mL

INPUT: Reported LC50, compound CC(C)(C(=O)Nc1ccc(Cl)cc1)c1ccc(Cl)cc1Cl [compound 19] : ____
OUTPUT: 106 µg/mL

INPUT: Reported LC50, compound COP(=O)(NC(C)=O)SC (stereo not shown) [Acephate, reference compound] : ____
OUTPUT: 878 µg/mL

INPUT: Reported LC50, compound CN(C(=O)C(C)(C)c1ccccc1F)c1ccc(Cl)cc1 [compound 18] : ____
OUTPUT: 211 µg/mL
